inhibition listing for selected compounds.
Biological target: Cytochrome P450 2C19 (Homo sapiens) (UniProt P33261)
Sequence (P33261 whole entry, looked up): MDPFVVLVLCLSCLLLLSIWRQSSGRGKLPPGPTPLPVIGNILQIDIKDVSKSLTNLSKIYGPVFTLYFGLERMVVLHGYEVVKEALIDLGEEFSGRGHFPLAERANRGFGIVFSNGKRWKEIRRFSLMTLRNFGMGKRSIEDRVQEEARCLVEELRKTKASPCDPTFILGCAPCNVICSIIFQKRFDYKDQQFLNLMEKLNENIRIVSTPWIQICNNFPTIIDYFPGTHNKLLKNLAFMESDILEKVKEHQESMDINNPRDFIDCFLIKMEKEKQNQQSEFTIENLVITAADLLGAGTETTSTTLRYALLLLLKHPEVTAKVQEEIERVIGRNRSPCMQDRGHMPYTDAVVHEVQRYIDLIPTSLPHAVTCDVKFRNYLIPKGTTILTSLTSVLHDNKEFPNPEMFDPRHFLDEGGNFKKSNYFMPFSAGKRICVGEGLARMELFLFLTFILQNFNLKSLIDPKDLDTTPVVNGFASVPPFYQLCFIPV
Assay: blockers of cytochrome P450 2C19 activity – biochemical, luminescence, ADME assay, primary screen (AID 778);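 further: plate controls were negative control wells for no effect and 2.5 mM tranylcypromine positive control for full effect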
Conditions: CYP2C19 Supersomes, luciferin-H EGE luminescence, 30 min; at 5 µM; hits give high values
The campaign covered roughly 96,000 compounds. About 20,000 (21%) were called active. These entries were drawn from the full list.
Answer in %, number only, no unit symbol.

[
  {
    "compound": "CCC1(C)Cc2c(sc3nc(SC)nc(N)c23)CO1 (configuration not stated)",
    "parameter-measured": "inhibition",
    "output-unit": "%",
    "test-value": 80.9
  },
  {
    "compound": "CCOC(=O)C1CCN(C(=O)C2CCN(S(=O)(=O)c3c(C)noc3C)CC2)CC1",
    "parameter-measured": "inhibition",
    "output-unit": "%",
    "test-value": 14.7
  },
  {
    "compound": "CCc1ccccc1NC(=O)c1cccs1",
    "parameter-measured": "inhibition",
    "output-unit": "%",
    "test-value": -1
  },
  {
    "compound": "COc1ccc(C(C(O)C(=O)c2c[nH]c3ccccc23)N2CCN(c3ccccc3)CC2)cc1 (configuration not stated)",
    "parameter-measured": "inhibition",
    "output-unit": "%",
    "test-value": 28.5
  },
  {
    "compound": "Cc1cc(C)cc(NC(=O)c2cccc(NC(=O)C3C4CC5OC(=O)C3C5C4)c2)c1 (configuration not stated)",
    "parameter-measured": "inhibition",
    "output-unit": "%",
    "test-value": 3
  }
]

For Cc1cccc(N2CC(C)Cn3c2nc2c3c(=O)n(CC(=O)OCc3ccccc3)c(=O)n2C)c1 (configuration not stated) , write its inhibition.
66.5

Look up inhibition of CCCCCCC(=O)N(O)C1CC(=O)N(c2ccccc2)C1=O (configuration not stated) and report it.
27.1

* * *

Target: Cytochrome P450 2C19 (Homo sapiens)
Assay: blockers of cytochrome P450 2C19 activity – biochemical, luminescence, ADME assay, primary screen (AID 778);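 further: plate controls were negative control wells for no effect and 2.5 mM tranylcypromine positive control for full effect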
Conditions: CYP2C19 Supersomes, luciferin-H EGE luminescence, 30 min; at 5 µM; hits give high values
In all, about 96,000 compounds went through this assay and about 20,000 (21%) were called active. The list is a sample of the results.
parameter-measured: inhibition (%)
Write the value in % as a bare number.

[
  {
    "molecule": "COC(=O)c1sccc1NC(=O)CSc1ccccc1NS(=O)(=O)c1cc(Cl)ccc1Cl",
    "tested-on": "Cytochrome P450 2C19 (Homo sapiens)",
    "parameter-measured": "inhibition",
    "output-unit": "%",
    "test-value": 20.8
  },
  {
    "molecule": "Cn1cccc1Cc1nnc(SCC(=O)NCc2ccc3c(c2)OCO3)n1CCc1ccccc1",
    "tested-on": "Cytochrome P450 2C19 (Homo sapiens)",
    "parameter-measured": "inhibition",
    "output-unit": "%",
    "test-value": 88.3
  },
  {
    "molecule": "COc1ccccc1C1/C(=C(/O)c2ccc(OC(C)C)cc2)C(=O)C(=O)N1c1cc(C)on1 (stereo not given)",
    "tested-on": "Cytochrome P450 2C19 (Homo sapiens)",
    "parameter-measured": "inhibition",
    "output-unit": "%",
    "test-value": -7.6
  },
  {
    "molecule": "COC(=O)c1ccc(NC(=O)CSc2nnc(Cc3cccn3C)n2-c2ccc(F)cc2)cc1",
    "tested-on": "Cytochrome P450 2C19 (Homo sapiens)",
    "parameter-measured": "inhibition",
    "output-unit": "%",
    "test-value": 22.5
  },
  {
    "molecule": "Cc1ccc(-n2nc3ccc(NC(=O)/C=C/c4ccco4)cc3n2)cc1C",
    "tested-on": "Cytochrome P450 2C19 (Homo sapiens)",
    "parameter-measured": "inhibition",
    "output-unit": "%",
    "test-value": -6.9
  }
]

Dear colleague, please send me the reported inhibition for O=C(NC(C(=O)NCCN1CCOCC1)C12CC3CC(CC(C3)C1)C2)C1CCCCC1 (stereo not given) when you can.
-0.8

Output inhibition of Cc1ccc(C(c2sc3nc(C)nn3c2O)N2CCN(c3ccc(F)cc3)CC2)cc1 (stereo not given)
42.9
